src = ChEMBL document CHEMBL3988442

Target: Arginase-2, mitochondrial (Homo sapiens) (UniProt P78540)
Sequence (P78540 whole entry): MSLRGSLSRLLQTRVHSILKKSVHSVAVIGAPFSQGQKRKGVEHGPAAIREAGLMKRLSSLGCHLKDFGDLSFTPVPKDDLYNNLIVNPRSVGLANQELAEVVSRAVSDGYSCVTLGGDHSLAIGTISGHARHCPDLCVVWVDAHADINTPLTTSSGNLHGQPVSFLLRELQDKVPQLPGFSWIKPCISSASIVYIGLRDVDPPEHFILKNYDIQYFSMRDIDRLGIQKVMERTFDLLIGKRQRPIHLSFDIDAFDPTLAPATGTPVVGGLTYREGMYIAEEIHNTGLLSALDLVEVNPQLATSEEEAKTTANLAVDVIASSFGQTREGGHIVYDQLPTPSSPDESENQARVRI
Experiment: in vitro enzyme assay to detect the production of urea directly proportional to the activity of Arginase II
Assay type: functional
Set-up: scale not given: in the data most compounds retested in dose-response had high values
Conditions: 33.3 µM
Here, each record is paired with measured Percent Effect data.

Consider the worked cases shown below.
{"Compound": "CNS(=O)(=O)c1ccc(C(=O)NC2CCc3nc(C)cn3C2)o1 (configuration not stated)", "Tgt": "Arginase-2, mitochondrial (Homo sapiens) (UniProt P78540)", "Result": "-3.45%"}
{"Compound": "CSCC(CCO)NC(=O)Nc1cccc(Br)c1 (configuration not stated)", "Tgt": "Arginase-2, mitochondrial (Homo sapiens) (UniProt P78540)", "Result": "3.18%"}
{"Compound": "CC(C)c1nc(C2CCCN2CCCc2nc3ccccc3o2)no1 (configuration not stated)", "Tgt": "Arginase-2, mitochondrial (Homo sapiens) (UniProt P78540)", "Result": "-6.81%"}
{"Compound": "CN1CC(=O)N(c2cnn(C)c2)CC12CCN(Cc1nccn1C)C2 (configuration not stated)", "Tgt": "Arginase-2, mitochondrial (Homo sapiens) (UniProt P78540)", "Result": "-0.399%"}
{"Compound": "CN(C)CCN1CCO[C@@H]2CN(C(=O)c3cccs3)CC[C@@H]2C1", "Tgt": "Arginase-2, mitochondrial (Homo sapiens) (UniProt P78540)", "Result": "-1.59%"}

Request: State the recorded Percent Effect for this entry: CCc1noc(CN2CCCN(C(N)=O)CC2)n1
Result: 4.94%
